Where these numbers come from: PubChem BioAssay (NCI)

# maps each entry to its growth
System: UO-31 renal
ASSAY PROCEDURE: NCI-60 one-dose screen, 48 h (100 = growth as untreated, 0 = no growth, -100 = all killed)
EXPERIMENTAL PARAMETERS: 10 µM unless noted
Procedure: Growth inhibition of the UO-31 human tumor cell line is measured as a screen for anti-cancer activity. Cells are grown in 96 well plates and exposed to the test compound for 48 hours. Compounds are tested at a single concentration, which is 10^-5 M for most compounds. The reported endpoint is percent growth (GI% or GIPRCNT), where numbers from 0 - 100% represent growth inhibition, and numbers from -100% - 0 represent cell death. For example, a value of 40 represents 60% growth inhibition. […]
About 83,000 compounds went through this panel and 20% of them were active in at least one assay; those are over-represented in the sample as a whole. Activity calls are given as the source filed them. Rule for the calls: active = growth percent below 10; inactive = the rest.

Field: example entries. Status: answers known.
COMPOUND	OBSERVED PROPERTY	VALUE MEASURED
COc1ccc(N2CCC(=O)NC2=S)cc1	growth	86.5% (inactive)
O=C1c2cc(Cl)ccc2S(=O)(=O)c2c(NCCCNCCO)nc3ccccc3c21	growth	-94.4% (active)

*Q* Need growth, item COc1ccc(/C=N/C2=C(C#N)C(c3cccc(Cl)c3)c3c(ccc4ccccc34)O2)cc1 (centres undefined)
*A* 43% (inactive)

*Q* // lookup growth for NC(=O)CCC(C(=O)O)N1C(=O)c2ccc(O)cc2C1=O (centres undefined)
*A* 93.1% (inactive)

*Q* So what does the record say about growth for CCOC(=O)c1ccc2[nH]c(O)c(C(=Nc3ccc(N(C)C(=O)CN4CCN(C)CC4)cc3)c3ccccc3)c2c1 ?
*A* -41.6% (active)

*Q* State the recorded growth for this entry: CCN(CC)CCCN1C(=O)c2c(c(C)c3c(oc4cc(O)ccc43)c2C)C1=O
*A* 90.8% (inactive)

*Q* Would you kindly share the measured growth for O=[N+]([O-])c1ccc(-c2nc(N3CCOCC3)c3c4c(sc3n2)CCCC4)cc1 ?
*A* 67.2% (inactive)

*Q* // lookup growth for COc1ccc(/C=N/NC(=O)CCN2c3ccccc3Sc3ccccc32)cc1
*A* 66.5% (inactive)

*Q* Request the reported growth associated with CC(C)(C)n1cc(-c2ccnc(NCCCNS(=O)(=O)c3ccc(F)cc3)c2)c(-c2cccc(F)c2)n1
*A* 50.3% (inactive)

###

Test system: HOP-62 NSCLC
ASSAY PROCEDURE: NCI-60 one-dose screen, 48 h
EXPERIMENTAL PARAMETERS: 10 µM unless noted
This is part of a sample that, as a whole, favours compounds with a hit. Of some 83,000 tested, about 20% had one in any assay. Calls of active or inactive are those of the source. Rule for the calls: active = growth percent below 10; inactive = the rest.
Tick one outcome: active, inactive

COMPOUND	CLASSIFICATION
CN1CCN(c2ccc(C(=O)Nc3cccc(C#Cc4cccc5[nH]nc(N)c45)c3)cc2C(F)(F)F)CC1	active
C[C@H](NC(=O)[C@@H](C)N)[C@H](Oc1ccc2c(cnn2-c2ccc(F)cc2)c1)c1ccc2c(c1)OCCO2	inactive
CCC(C)N(c1ccc(Cl)cc1)c1nc(-c2ccc(Br)cc2)cs1 (stereo unspecified)	inactive
Cc1cccnc1NC(=S)Nc1ncccc1C	inactive
CN(C)Cc1ccc(NC(=O)c2cncc(C#Cc3cnc(N)c4ncccc34)c2)cc1F	inactive

*Q* Can you look up the reported call for C/C(=N/O)c1ccc(F)cc1 for me?
*A* inactive

*Q* Which outcome did this test record for the compound C=CCn1c(SCC(=O)Nc2ccc(C(=O)/C=C/c3cc4cc(OC)ccc4nc3Cl)cc2)nnc1-c1ccc(Br)cc1 ?
*A* inactive

*Q* What is the recorded call for this compound in the test? CCn1c(=S)[nH]c2c(=O)n(C)c(=O)n(C)c21
*A* inactive

*Q* Entry COc1ccc2[nH]cc(C(c3cc(F)cc(F)c3)c3c[nH]c4ccc(OC)cc34)c2c1 : call = ?
*A* inactive

*Q* Hi, sorry to bother you, what did the test record for C=C(C)[C@@H]1CC[C@]2(C(=O)OC)CC[C@]3(C)[C@H](CC[C@@H]4[C@@]5(C)C/C(=C/NC(N)=S)C(=O)C(C)(C)[C@@H]5CC[C@]43C)[C@@H]12 ?
*A* inactive

*Q* Hi, do you know how CO[C@H]1/C=C(/C)CCC[C@H](C)[C@H](O)[C@@H](C)C(=O)C(C)(C)[C@@H](O)CC(=O)O[C@@H]1/C(C)=C/c1csc(C)n1 came out in this test?
*A* inactive
